// endpoint pKi / system Cholinesterase (Homo sapiens)
pKi is a log-scale quantity: -log10 of the concentration expressed in molar.

chemical_string=O=C(NCCCCCCCNc1c2c(nc3ccccc13)CCCC2)c1cc2ccccc2oc1=O observed_measurement=7.70
chemical_string=O=C(NCCCCCCCNc1c2c(nc3ccccc13)CCCC2)c1cc2cc(OC(F)(F)F)ccc2oc1=O observed_measurement=7.40
chemical_string=O=C(NCCCCCNc1c2c(nc3ccccc13)CCCC2)c1cc2ccccc2oc1=O observed_measurement=7.50
chemical_string=Cc1ccc2oc(=O)c(C(=O)NCCCCCCCNc3c4c(nc5ccccc35)CCCC4)cc2c1 observed_measurement=7.29
chemical_string=COc1cc2cc(C(=O)NCCCCCCCNc3c4c(nc5ccccc35)CCCC4)c(=O)oc2cc1OC observed_measurement=7.43
chemical_string=COc1ccc2oc(=O)c(C(=O)NCCCCCCCNc3c4c(nc5ccccc35)CCCC4)cc2c1 observed_measurement=7.46

Fill in the recorded pKi for this compound, with Cholinesterase (Homo sapiens) as test system: "COc1cc2cc(C(=O)NCCCCCNc3c4c(nc5ccccc35)CCCC4)c(=O)oc2cc1OC"
Sequence (P06276 whole entry): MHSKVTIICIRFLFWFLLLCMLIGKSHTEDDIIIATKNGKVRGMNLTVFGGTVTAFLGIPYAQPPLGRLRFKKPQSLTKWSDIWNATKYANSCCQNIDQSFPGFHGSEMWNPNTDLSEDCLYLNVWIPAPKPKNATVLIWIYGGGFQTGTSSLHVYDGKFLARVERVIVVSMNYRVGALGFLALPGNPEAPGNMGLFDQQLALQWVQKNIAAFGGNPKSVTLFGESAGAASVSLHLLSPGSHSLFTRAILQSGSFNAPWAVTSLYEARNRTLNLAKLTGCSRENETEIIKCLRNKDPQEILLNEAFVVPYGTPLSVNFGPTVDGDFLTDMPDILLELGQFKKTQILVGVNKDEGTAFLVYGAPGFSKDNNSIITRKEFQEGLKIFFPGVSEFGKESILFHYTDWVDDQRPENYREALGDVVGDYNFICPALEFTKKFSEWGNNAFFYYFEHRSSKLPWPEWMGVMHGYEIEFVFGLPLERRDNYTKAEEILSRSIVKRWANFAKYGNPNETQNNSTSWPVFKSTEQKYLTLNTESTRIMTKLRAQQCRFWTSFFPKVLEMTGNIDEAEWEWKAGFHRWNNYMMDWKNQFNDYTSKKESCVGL
8.09

Fill in the recorded pKi for this compound, with Cholinesterase (Homo sapiens) as test system: "O=C(NCCCCCCNc1c2c(nc3ccccc13)CCCC2)c1cc2ccccc2oc1=O"
7.79

Fill in the recorded pKi for this compound, with Cholinesterase (Homo sapiens) as test system: "COc1ccc2cc(C(=O)NCCCCCCNc3c4c(nc5ccccc35)CCCC4)c(=O)oc2c1"
7.69

Fill in the recorded pKi for this compound, with Cholinesterase (Homo sapiens) as test system: "O=C(NCCCCCNc1c2c(nc3ccccc13)CCCC2)c1cc2cc(OC(F)(F)F)ccc2oc1=O"
7.49

Fill in the recorded pKi for this compound, with Cholinesterase (Homo sapiens) as test system: "O=C(NCCCCCCNc1c2c(nc3ccccc13)CCCC2)c1cc2cc(OC(F)(F)F)ccc2oc1=O"
7.76
